Experiment: NCI Yeast Anticancer Drug Screen. Data for the rad50 strain (AID 155);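 also: 0% = growth of vehicle-only cultures of the same strain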
Conditions: S. cerevisiae rad50 strain growth inhibition; at 11.0 µM
Compounds without any hit were thinned out: in the full panel of roughly 79,000, 15% have a hit. Active and inactive are the calls of the source. Rule as the data show it: active = growth inhibition above about 70%; inactive = the rest.
Choose the fitting class; nothing outside active, inactive is accepted.

Worked examples, 2 molecules total:
>>> category_label("COc1ccc2nc3cccc([N+](=O)[O-])c3c(NCCCO)c2c1")
"active"
>>> category_label("Cc1ccc(S(=O)(=O)N/N=C/c2c(O)ccc3ccccc23)cc1")
"active"

Please indicate how the test categorized `Nc1nc(Nc2ccccc2)nc(Nc2ccccc2)n1` .
inactive

---

Assay: NCI Yeast Anticancer Drug Screen. Data for the mlh1 rad18 strain (AID 175)
Conditions: S. cerevisiae mlh1 rad18 strain growth inhibition; at 50.0 µM; hits give high values
This is part of a sample that, as a whole, favours compounds with a hit. Of some 79,000 tested, about 15% had one in any assay. Calls of active or inactive are those of the source. Rule as the data show it: active = growth inhibition above about 70%; inactive = the rest.
Please go through the items and note down their growth inhibition.

The following molecules have reported results that may help.
>>> result("CN(C)c1ccc(/C=C/c2ccnc3ccc4ccccc4c23)cc1")
"72% (active)"
>>> result("O=Cn1c2ccccc2c2ccccc21")
"70.8% (active)"

Next molecule, please.
// growth inhibition lookup, key: `O=C1c2ccccc2C(=O)C1C(c1ccc(F)cc1)C1C(=O)c2ccccc2C1=O`
72.1% (active)

---

Assay: NCI Yeast Anticancer Drug Screen. Data for the sgs1 strain (AID 173);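 also: 0% = growth of vehicle-only control cultures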
Conditions: S. cerevisiae sgs1 mutant, at 100.0 µM
The panel holds about 79,000 compounds, 15% with a hit somewhere; the sample as a whole holds those more often. Active and inactive are the calls of the source. Rule as the data show it: active = growth inhibition above about 70%; inactive = the rest.
Choose the fitting class; nothing outside class 1 (active), class 0 (inactive) is accepted.

>>> category_label("O=C(Cc1ccccc1F)NC1=C(Cl)C(=O)c2ccccc2C1=O")
"class 0"
>>> category_label("CC(C)c1ccc(C2NC(=S)NC3=C2c2ccccc2C3=O)cc1 (stereo not given)")
"class 0"
>>> category_label("CCC(C)/C(C)=N/NC(N)=O (stereo not given)")
"class 0"

Please indicate how the test categorized `Cc1ccc(Cl)c2c(=O)c3ccccc3[nH]c12` .
class 0

Please indicate how the test categorized `N=c1oc2ccccc2cc1-c1nc2ccccc2[nH]1` .
class 1

Please indicate how the test categorized `COc1ccc(/C=C2\CCc3ccccc3C2=O)cc1OC` .
class 1

Please indicate how the test categorized `Nc1nc(Nc2ccccc2)nc(Nc2ccccc2)n1` .
class 1

Please indicate how the test categorized `Cn1c(COc2ccc(/C=N/NC(=O)CCC(=O)N/N=C/c3ccc(OCc4c[n+]5ccccc5n4C)cc3)cc2)c[n+]2ccccc12` .
class 1

---

Test: NCI Yeast Anticancer Drug Screen. Data for the wt1 strain (AID 149);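 also: 0% = growth of vehicle-treated wt1 cultures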
Settings: S. cerevisiae wt1 strain (SPY 50644) growth inhibition; at 3.7 µM; hits give high values
The panel holds about 79,000 compounds, 15% with a hit somewhere; the sample as a whole holds those more often.
quantity-kind: growth inhibition (%)
One number for each entry, in %.

>>> result("Oc1ccc(Br)cc1C=Nc1cccc(C(F)(F)F)c1")
-7
>>> result("O=[N+]([O-])c1ccc2nnnn2c1")
2
>>> result("C=Cc1c(C)c(O)cc2c1-c1ccc(O)c(C)c1CC2")
-4

Please report growth inhibition for every entry that follows.
1. Cc1cccc[c]1[Sn]([Cl])([S]/C(C#N)=N/N=C/c1ccc(N(C)C)cc1)[c]1ccccc1C
2. Cc1nc2ccc(Br)cc2c(=O)n1-c1ccc(NC2OCC(O)C(O)C2O)cc1 (stereo unspecified)
3. S=C1NC2=C(CSC/C2=C\c2ccc(Cl)cc2)C(c2ccc(Cl)cc2)N1 (stereo unspecified)
4. COc1ccc(C(=O)NCCN(C)C)c2nc3ccccc3cc12
5. Cc1cc(N(CCOS(C)(=O)=O)CCOS(C)(=O)=O)ccc1C=O
6. c1cc(Nc2ccc3c(c2)OCO3)c2cc(C3CCCCC3)ccc2n1

1: -3; 2: 9; 3: 19; 4: 21; 5: 28; 6: 0

Please report growth inhibition for every entry that follows.
1. O=c1oc(C(C(F)(F)F)C(F)(F)F)nc2ccccc12
2. Clc1ccc(C(c2ccc(Cl)cc2)N2CCNCC2)cc1
3. Cc1cnc(/C=N\NC(N)=S)c2cccc(N)c12
4. O=C1C(Br)=CC(Br)(Br)C=C1Br
5. CCCCCCCCCCCCCCCCCN
6. O=c1[nH]c(=O)n(CCCO)cc1F
7. NCC(O)CSCc1ccc(Cl)cc1 (stereo unspecified)

[24, 6, -49, 9, -25, 0, -5]

---

Please go through the items and note down their growth inhibition.
Experiment: NCI Yeast Anticancer Drug Screen. Data for the bub3 strain (AID 167)
Conditions: S. cerevisiae bub3 mutant strain, at 33.0 µM, hits give high values
Description: Growth inhibition of yeast strains with defined genetic alterations is measured as a screen for potential anti-cancer activity. Selected strains with alterations in DNA damage repair or cell cycle control were exposed to compounds and growth inhibition was measured relative to vehicle treated controls. The strain used in this assay is bub3
Compounds without any hit were thinned out: in the full panel of roughly 79,000, 15% have a hit.
One number for each entry, in %.

The following molecules have reported results that may help.
>>> result("O=C(Cc1ccccc1F)NC1=C(Cl)C(=O)c2ccccc2C1=O")
47
>>> result("CC(C)(C)[Si](C)(C)OCC1OC(n2cnc3c(N)ncnc32)C2OC(=S)OC12 (centres undefined)")
3
>>> result("Cc1cc(NCCCN(C)C)c2ccc3c(ccc4c(NCCCN(C)C)cc(C)nc43)c2n1")
5
>>> result("O=Cc1ccccc1B(O)O")
98
>>> result("c1cc(Nc2ccc3c(c2)OCO3)c2cc(C3CCCCC3)ccc2n1")
8
>>> result("O=Cn1c2ccccc2c2ccccc21")
-21

Please report growth inhibition for every entry that follows.
1. CCCCCCCCCC/C=C\CC(=O)O
2. CC1=Cc2ccc(C)cc2C(=O)C1=O
3. COc1cc(C(C)C(C(=O)O)C(=O)C(=O)O)cc(OC)c1OC (centres undefined)
4. O=C1c2ccccc2-c2ccc(NC(=O)C3CCCCC3C(=O)O)cc21 (centres undefined)
5. CCOc1ccccc1N1C(=O)CC(Sc2ccccc2N)C1=O (centres undefined)
6. Nc1cccc2cc(Cl)cnc12
7. C[Si](C)(C)Cc1ccccc1C(=O)O

-3
44
-3
80
-23
13
6

Please report growth inhibition for every entry that follows.
1. COc1ccc(/C=C2\CCc3ccccc3C2=O)cc1OC
2. COc1ccc2nc3cccc([N+](=O)[O-])c3c(NCCCO)c2c1
3. O=C(O)NCC1CCCCC1 (tested in a mixture with another compound)
4. [O-]c1c2cc(-[n+]3c(-c4ccccc4)cc(-c4ccccc4)cc3-c3ccccc3)cc1COCCOCCOCCOCCOC2

1. 76
2. 97
3. -2
4. -8

Please report growth inhibition for every entry that follows.
1. O=C1C(Br)=CC(Br)(Br)C=C1Br
2. CN(C)c1ccc(/C=C/c2ccnc3ccc4ccccc4c23)cc1
3. c1ccc(N/N=C2\CC(c3ccccc3)Oc3ccccc32)cc1 (centres undefined)
4. CC1(C)CC(=O)C(C(CC(c2ccccc2)c2cc3c(cc2O)OCO3)C2=C(O)CC(C)(C)CC2=O)=C(O)C1 (centres undefined)
5. Cc1cnc(/C=N\NC(N)=S)c2cccc(N)c12
6. O=S(=O)(CCC[C@H]1[C@@H](CCOCc2ccccc2)C2CCCN1O2)c1ccccc1 (some centres undefined)

1: 96; 2: 83; 3: 39; 4: 63; 5: 25; 6: 6

Please report growth inhibition for every entry that follows.
1. Cc1nc2ccc(Br)cc2c(=O)n1-c1ccc(NC2OCC(O)C(O)C2O)cc1 (centres undefined)
2. O=[N+]([O-])C(=C(NCc1ccccc1)NCc1ccccc1)C(Cl)=C(Cl)Cl
3. CC1=NN(C(=O)CC(=O)N(C(=O)c2ccccc2)c2ccc(Cl)cc2)C(=O)C1N=Nc1ccc([N+](=O)[O-])cc1 (centres undefined)
4. CC(=O)c1ccc(NCN2C(=O)c3ccccc3C2=O)cc1
5. CCOC(=O)/C(O)=C(/C=N/C(=S)Nc1c(CC)cccc1CC)C(=O)OCC

49
5
63
79
12

// growth inhibition lookup, key: `O=c1c(Br)cc2c(-c3ccccc3)c3cc(Br)c(O)c(Br)c3oc-2c1Br`
92

---

Please go through the items and note down their growth inhibition.
Assay: NCI Yeast Anticancer Drug Screen. Data for the rad14 strain (AID 159);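 also: 0% = growth of vehicle-treated control cultures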
Details: S. cerevisiae rad14 strain growth inhibition; at 11.0 µM; hits give high values
Compounds without any hit were thinned out: in the full panel of roughly 79,000, 15% have a hit. Calls of active or inactive are those of the source. No stated cut-off is given here; in the data, active means growth inhibition above about 70%; inactive means the rest.

>>> result("CC1=Cc2ccc(C)cc2C(=O)C1=O")
"79% (active)"
>>> result("Cc1ccc2oc(-c3cccc(N)c3)nc2c1")
"9% (inactive)"

Next compound, please.
// growth inhibition lookup, key: `CCN(CC)c1ccc(N=Nc2cc(S(=O)(=O)O)ccc2O)c(O)c1`
3% (inactive)
